Origin of values: PubChem BioAssay

# target.entity: Homeobox protein Hox-A13 (Mus musculus) (UniProt Q62424)
# Sequence (Q62424 whole entry, looked up): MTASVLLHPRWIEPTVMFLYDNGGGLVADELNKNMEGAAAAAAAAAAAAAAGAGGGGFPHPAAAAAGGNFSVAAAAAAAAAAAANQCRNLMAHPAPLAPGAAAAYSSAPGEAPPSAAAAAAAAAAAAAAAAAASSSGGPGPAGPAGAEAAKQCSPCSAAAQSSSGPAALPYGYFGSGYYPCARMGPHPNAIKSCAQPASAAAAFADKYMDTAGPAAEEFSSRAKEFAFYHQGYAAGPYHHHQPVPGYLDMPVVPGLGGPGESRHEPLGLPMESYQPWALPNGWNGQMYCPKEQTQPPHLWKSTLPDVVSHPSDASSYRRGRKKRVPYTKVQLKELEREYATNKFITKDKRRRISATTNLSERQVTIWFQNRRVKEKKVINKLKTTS
# assay.info: inhibitors of HoxA13-DNA binding, primary screen, biochemical, fluorescence polarization, labeled oligonucleotide (AID 1185)
# run.conditions: 15 min, higher = more signal, called active from +8 up or from −8 down
measurement.type: z-score
Field format: numeric only.

Below are worked cases with known answers.
# smiles.representation, target.entity, measurement
data = [
    ("Cc1ccc(S(=O)(=O)N[C@H]2COC(=O)[C@@H](C)COC(=O)[C@H](C)NC(=O)CC=C[C@H]2C)cc1", "Homeobox protein Hox-A13 (Mus musculus) (UniProt Q62424)", -0.0362),
    ("CC(C)=NO[C@@H](C)c1cc(-c2c(C)cc(C)cc2C)no1", "Homeobox protein Hox-A13 (Mus musculus) (UniProt Q62424)", 0.387),
    ("CCCNC(=O)OC[C@H]1O[C@H](CCON=C(C)CCC(=O)OC[C@H]2O[C@H](C#Cc3ccccc3)C=C[C@@H]2Oc2ccc(C)cc2)C=C[C@@H]1Oc1ccc(OC)cc1", "Homeobox protein Hox-A13 (Mus musculus) (UniProt Q62424)", -0.983),
]

Fill in the recorded z-score for this compound, with Homeobox protein Hox-A13 (Mus musculus) (UniProt Q62424) as test system: C[C@@H](ON=C1[C@H]2CCn3c(=O)n(-c4ccccc4)c(=O)n3[C@H]2[C@H](O)[C@@H]2O[C@H]12)c1cn([C@H](CO)Cc2ccccc2)nn1
-2.41

###

Measured composite z-score accompanies every entry in the list below.
# assay.info: small-molecule microarray binders of probe aLefty2, primary screen, biochemical, biotinylated probe, 635/667 nm fluorescence (AID 1094);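 note: score merges spot fluorescence near 667 nm with spot signal-to-noise ratio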
# run.conditions: higher = more signal

composite z-score lookup needed for COc1ccc(COC(=O)NN=C2C[C@@H](O)[C@@H](O)[C@@H]3[C@@H]4C(=O)N(C(C)(C)C)C(=O)[C@@H]4CC[C@H]23)cc1 , thanks.
-0.277

What about C#CCCCON=C1C[C@@H](O)[C@@H](O)[C@@H]2[C@@H]3C(=O)N(C4CCCCC4)C(=O)[C@@H]3CC[C@H]12 ?
0.0103

Then CCOC(=O)NN=C1C[C@@H](O)[C@@H](O)[C@@H]2[C@@H]3C(=O)N(Cc4ccc5c(c4)OCO5)C(=O)[C@@H]3CC[C@@H]12 ?
-0.148

# repeat for C[C@@H]1CC[C@@H](C(=O)O)N[C@H]1c1ccc(-c2ccco2)cc1
0.0331

Request: O=C1[C@H]2[C@H]3[C@H](O)[C@H](O)CC(=NOCc4ccccc4)[C@H]3CC[C@H]2C(=O)N1Cc1ccccc1
-0.234

Try this compound next: CO[C@H]1COC(=O)CC=C[C@@H](C)COC(=O)[C@@H](OCc2ccccc2)C=C[C@@H]1C
-0.353

###

# target.entity: Dickkopf-related protein 1 (Homo sapiens) (UniProt O94907)
# Sequence (O94907 whole entry, looked up): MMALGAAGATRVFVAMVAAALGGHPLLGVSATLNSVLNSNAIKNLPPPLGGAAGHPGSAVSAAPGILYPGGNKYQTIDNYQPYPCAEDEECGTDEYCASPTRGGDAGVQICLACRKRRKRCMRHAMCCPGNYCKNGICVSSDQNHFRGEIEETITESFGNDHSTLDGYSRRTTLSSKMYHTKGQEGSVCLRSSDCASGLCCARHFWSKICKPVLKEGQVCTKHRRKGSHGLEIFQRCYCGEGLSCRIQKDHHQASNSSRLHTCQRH
# assay.info: DKK1 binders on small-molecule microarrays, primary screen, biochemical, small-molecule microarray, 635 nm fluorescence scan (AID 1106);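 note: score merges emission near 667 nm with signal to noise over three replicate slides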
# run.conditions: DKK1 binding, higher = more signal
Classify by measured composite z-score: Satisfied if it is equal to or exceeds 0.5, Not satisfied if it is smaller.

Example results:
# molecule, qualitative.label
data = [
    ("CC(=O)OC[C@H]1O[C@H](C#CC(C)(C)C)C=C[C@@H]1OC(C)=O", "Satisfied"),
    ("CCOC(=O)[C@H](CC(C)C)NC(=O)CCC1CC(OC(=O)NCc2cccc3ccccc23)CC2(CCCC(COC(=O)NCc3ccccc3)O2)O1 (stereo not given in full)", "Not satisfied"),
    ("CCN1C(=O)[C@H]2[C@H]3[C@H](O)[C@H](O)CC(=NOC)[C@@H]3CC[C@H]2C1=O", "Not satisfied"),
    ("CCOC(=O)NN=C1C[C@@H](O)[C@@H](O)[C@@H]2[C@@H]3C(=O)N(Cc4ccc5c(c4)OCO5)C(=O)[C@@H]3CC[C@@H]12", "Not satisfied"),
]

Does the reported composite z-score for CO[C@H]1COC(=O)[C@H](C)NC(=O)CC=C[C@@H](C)[C@H](OC)COC(=O)CC=C[C@@H]1C fall at or above the 0.5 mark?
Satisfied

What do you get for O=C(NN=C1C[C@@H](O)[C@@H](O)[C@@H]2[C@@H]3C(=O)N(Cc4ccc5c(c4)OCO5)C(=O)[C@@H]3CC[C@H]12)OCc1ccccc1 ?
Not satisfied

For CO[C@@H]1C=CCC(=O)N2CCC[C@H]2C(=O)OC[C@H](C)C(=O)OC[C@H]1C then?
Satisfied

Another: CC(C)=CCCC(C)=CCON=C1C[C@@H](O)[C@@H](O)[C@@H]2[C@@H]3C(=O)N([C@@H](C)c4ccccc4)C(=O)[C@@H]3CC[C@H]12
Satisfied

Cool, now Cc1ccc(S(=O)(=O)N[C@H]2COC(=O)[C@@H](C)COC(=O)[C@H](C)NC(=O)CC=C[C@H]2C)cc1
Satisfied

Further, for CO[C@H]1COC(=O)CC=C[C@@H](C)COC(=O)[C@@H](OCc2ccccc2)C=C[C@@H]1C ?
Satisfied

Then what about the molecule CC(C)=NO[C@@H](C)c1cc(-c2c(C)cc(C)cc2C)no1 ?
Not satisfied

Lookup CCCNC(=O)OC[C@H]1O[C@H](CCON=C(C)CCN2CCc3nc(-c4ccccc4)c(-c4ccccc4)cc3C2)C=C[C@@H]1Oc1ccc(OC)cc1
Not satisfied

Another: CO[C@@H]1COC(=O)CC=C[C@H](C)COC(=O)[C@H](C)NC(=O)CC=C[C@H]1C
Satisfied

Query CCOC(=O)CCN1C(=O)[C@H]2[C@H]3[C@H](O)[C@H](O)CC(=NNC(=O)OCC)[C@@H]3CC[C@H]2C1=O next
Not satisfied

Now consider CC(C)CON=C1C[C@@H](O)[C@@H](O)[C@@H]2[C@@H]3C(=O)N(c4cccc(Oc5ccccc5)c4)C(=O)[C@@H]3CC[C@H]12 and answer again.
Satisfied
